src = ChEMBL document CHEMBL4837210

- Test system: Staphylococcus aureus
- assay.method.text: Antibacterial activity against Staphylococcus aureus assessed as inhibition of bacterial growth measured by broth microdilution method
- Type: functional
- condition.parameters: time 24 hrs
test.readout: log10(MIC) (log10 of the value in µg/mL)
In plain terms, each number is the log10 of measured MIC in µg/mL.

Please review the following examples before continuing.
{"smiles.string": "Cc1ccccc1C#Cc1c2ccccc2[n+](C)c2ccccc12.[I-]", "log10(MIC)": 0.30}
{"smiles.string": "COc1ccccc1/C=C/c1c2ccccc2[n+](C)c2ccccc12.[I-]", "log10(MIC)": 0.00}
{"smiles.string": "CCc1ccc(C#Cc2c3ccccc3[n+](C)c3ccccc23)cc1.[I-]", "log10(MIC)": 0.30}
{"smiles.string": "CCCOc1ccc(C#Cc2c3ccccc3[n+](C)c3ccccc23)cc1.[I-]", "log10(MIC)": 0.60}
{"smiles.string": "C[n+]1c2ccccc2c(Nc2ccncn2)c2ccccc21.[Cl-]", "log10(MIC)": 1.51}

Requested read-out log10(MIC), target or system Staphylococcus aureus, entry C[n+]1c2ccccc2c(-c2ccc(OC(F)(F)F)cc2)c2ccccc21.[I-]
0.30

Requested read-out log10(MIC), target or system Staphylococcus aureus, entry CCCCCCNc1c2ccccc2[n+](C)c2ccccc12.[Cl-]
1.81

Requested read-out log10(MIC), target or system Staphylococcus aureus, entry COc1ccc(/C=C/c2c3ccccc3[n+](C)c3ccccc23)cc1OC.[I-]
0.90

Requested read-out log10(MIC), target or system Staphylococcus aureus, entry C[n+]1c2ccccc2c(-c2ccc(-c3ccccc3)cc2)c2ccccc21.[I-]
-0.60

Requested read-out log10(MIC), target or system Staphylococcus aureus, entry CCOc1ccc(C#Cc2c3ccccc3[n+](C)c3ccccc23)cc1.[I-]
0.60

Requested read-out log10(MIC), target or system Staphylococcus aureus, entry Cc1ccccc1-c1c2ccccc2[n+](C)c2ccccc12.[I-]
1.81

Requested read-out log10(MIC), target or system Staphylococcus aureus, entry CCCCc1ccc(C#Cc2c3ccccc3[n+](C)c3ccccc23)cc1.[I-]
0.60

Requested read-out log10(MIC), target or system Staphylococcus aureus, entry Cc1cccc(-c2c3ccccc3[n+](C)c3ccccc23)c1.[I-]
0.60

Requested read-out log10(MIC), target or system Staphylococcus aureus, entry Cc1ccc(-c2c3ccccc3[n+](C)c3ccccc23)cc1.[I-]
0.60

----------
- tested.system: Cell division protein FtsZ (Escherichia coli K-12, UniProt P0A9A6)
- Sequence (P0A9A6 whole entry): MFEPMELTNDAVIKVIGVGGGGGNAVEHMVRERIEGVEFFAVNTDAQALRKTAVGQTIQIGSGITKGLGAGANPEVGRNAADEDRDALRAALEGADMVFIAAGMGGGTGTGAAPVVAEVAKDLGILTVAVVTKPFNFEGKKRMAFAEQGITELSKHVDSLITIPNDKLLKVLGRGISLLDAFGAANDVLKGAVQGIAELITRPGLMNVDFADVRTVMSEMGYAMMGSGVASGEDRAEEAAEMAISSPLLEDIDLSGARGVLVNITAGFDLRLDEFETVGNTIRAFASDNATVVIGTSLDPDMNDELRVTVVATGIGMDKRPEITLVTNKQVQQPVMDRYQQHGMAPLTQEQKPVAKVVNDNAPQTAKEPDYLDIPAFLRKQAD
test.readout: pIC50
As a rule, pIC50 stands for the negative log10 of the concentration, concentration in M.

Requested read-out pIC50, target or system Cell division protein FtsZ (Escherichia coli K-12, UniProt P0A9A6), entry C[n+]1cc2c3c(ccc2c2ccc4cc5c(cc4c21)OCO5)OCO3.[Cl-] [SANGUINARIUM CHLORIDE]
4.90

----------
- System: Streptococcus pyogenes
- assay.method.text: Antibacterial activity against erythromycin-resistant Streptococcus pyogenes 2 assessed as bacterial growth inhibition incubated for 24 hrs by CLSI protocol based broth microdilution method
- Format: functional
Quick rule for you: MIC under 4 µg/mL gets TRUE, anything else gets FALSE.

Example entries and their recorded answers appear below.
{"smiles.string": "CCNc1c2ccccc2[n+](C)c2ccccc12.[Cl-]", "class.assignment": "FALSE"}
{"smiles.string": "CCCOc1ccc(C#Cc2c3ccccc3[n+](C)c3ccccc23)cc1.[I-]", "class.assignment": "FALSE"}
{"smiles.string": "C[n+]1c2ccccc2c(C#Cc2ccc(-c3ccccc3)cc2)c2ccccc21.[I-]", "class.assignment": "FALSE"}
{"smiles.string": "C[n+]1c2ccccc2c(Nc2ccc(F)cc2F)c2ccccc21.[Cl-]", "class.assignment": "FALSE"}
{"smiles.string": "CCCCCCNc1c2ccccc2[n+](C)c2ccccc12.[Cl-]", "class.assignment": "FALSE"}

Is MIC strictly under 4 µg/mL for the entry C[n+]1c2ccccc2c(Nc2nccs2)c2ccccc21.[Cl-] ?
FALSE

Is MIC strictly under 4 µg/mL for the entry C[n+]1c2ccccc2c(Nc2ccccc2-c2ccccc2)c2ccccc21.[Cl-] ?
FALSE

Is MIC strictly under 4 µg/mL for the entry C[n+]1c2ccccc2c(Nc2ccccn2)c2ccccc21.[Cl-] ?
FALSE

Is MIC strictly under 4 µg/mL for the entry COc1ccc(Nc2c3ccccc3[n+](C)c3ccccc23)c(OC)c1.[Cl-] ?
FALSE

Is MIC strictly under 4 µg/mL for the entry C[n+]1c2ccccc2c(/C=C/c2ccc(C(C)(C)C)cc2)c2ccccc21.[I-] ?
TRUE

----------
- Tested on: Escherichia coli
- assay.method.text: Antibacterial activity against penicillin-susceptible Escherichia coli ATCC 25922 assessed as inhibition of bacterial growth measured by broth microdilution method
- Assay type: functional
- condition.parameters: time 24 hrs
test.readout: MIC

Please review the following examples before continuing.
{"smiles.string": "C[n+]1c2ccccc2c(C#Cc2ccc(-c3ccccc3)cc2)c2ccccc21.[I-]", "MIC": "> 64 µg/mL"}
{"smiles.string": "C[n+]1c2ccccc2c(-c2ccc(C=O)cc2)c2ccccc21.[I-]", "MIC": "> 64 µg/mL"}
{"smiles.string": "Cc1ccc(Nc2c3ccccc3[n+](C)c3ccccc23)c(C)c1.[Cl-]", "MIC": "> 64 µg/mL"}
{"smiles.string": "C[n+]1c2ccccc2c(/C=C/c2ccc(-c3ccccc3)cc2)c2ccccc21.[I-]", "MIC": "32 µg/mL"}

Suppose we examine the compound C[n+]1c2ccccc2c(C#Cc2ccccc2)c2ccccc21.[I-] ; what MIC value has been reported?
> 64 µg/mL

Suppose we examine the compound CN[C@H](CC(C)C)C(=O)N[C@H]1C(=O)N[C@@H](CC(N)=O)C(=O)N[C@H]2C(=O)N[C@H]3C(=O)N[C@H](C(=O)N[C@H](C(=O)O)c4cc(O)cc(O)c4-c4cc3ccc4O)[C@H](O)c3ccc(c(Cl)c3)Oc3cc2cc(c3O[C@@H]2O[C@H](CO)[C@@H](O)[C@H](O)[C@H]2O[C@H]2C[C@](C)(N)[C@H](O)[C@H](C)O2)Oc2ccc(cc2Cl)[C@H]1O ; what MIC value has been reported?
> 64 µg/mL

Suppose we examine the compound Cc1ccc(/C=C/c2c3ccccc3[n+](C)c3ccccc23)cc1.[I-] ; what MIC value has been reported?
64 µg/mL

Suppose we examine the compound CCCc1ccc(-c2c3ccccc3[n+](C)c3ccccc23)cc1.[I-] ; what MIC value has been reported?
> 64 µg/mL

Suppose we examine the compound C[n+]1c2ccccc2c(Nc2ccccc2C(F)(F)F)c2ccccc21.[Cl-] ; what MIC value has been reported?
> 64 µg/mL

Suppose we examine the compound C[n+]1c2ccccc2c(NC2CC2)c2ccccc21.[Cl-] ; what MIC value has been reported?
> 64 µg/mL

Suppose we examine the compound COc1ccccc1Nc1c2ccccc2[n+](C)c2ccccc12.[Cl-] ; what MIC value has been reported?
> 64 µg/mL

Suppose we examine the compound CCNc1c2ccccc2[n+](C)c2ccccc12.[Cl-] ; what MIC value has been reported?
> 64 µg/mL

Suppose we examine the compound C[n+]1c2ccccc2c(Nc2ccccn2)c2ccccc21.[Cl-] ; what MIC value has been reported?
> 64 µg/mL

Suppose we examine the compound C[n+]1c2ccccc2c(Nc2ncccn2)c2ccccc21.[Cl-] ; what MIC value has been reported?
> 64 µg/mL

----------
- System: Streptococcus pyogenes
- assay.method.text: Antibacterial activity against erythromycin-resistant Streptococcus pyogenes 2 assessed as bacterial growth inhibition incubated for 24 hrs by CLSI protocol based broth microdilution method
- Assay type: functional
Reported MIC values for the following compounds.
Write the value in µg/mL as a bare number.

{"compound": "CCCCCCCNc1c2ccccc2[n+](C)c2ccccc12.[Cl-]", "test.readout": "MIC", "endpoint.result": 32}
{"compound": "CN[C@H](CC(C)C)C(=O)N[C@H]1C(=O)N[C@@H](CC(N)=O)C(=O)N[C@H]2C(=O)N[C@H]3C(=O)N[C@H](C(=O)N[C@H](C(=O)O)c4cc(O)cc(O)c4-c4cc3ccc4O)[C@H](O)c3ccc(c(Cl)c3)Oc3cc2cc(c3O[C@@H]2O[C@H](CO)[C@@H](O)[C@H](O)[C@H]2O[C@H]2C[C@](C)(N)[C@H](O)[C@H](C)O2)Oc2ccc(cc2Cl)[C@H]1O [VANCOMYCIN]", "test.readout": "MIC", "endpoint.result": 1}
{"compound": "C[n+]1c2ccccc2c(/C=C/c2ccc(Br)cc2)c2ccccc21.[I-]", "test.readout": "MIC", "endpoint.result": 0.5}

Now for a further compound.
Suppose we examine the compound CC(=O)NC[C@H]1CN(c2ccc(N3CCOCC3)c(F)c2)C(=O)O1 [LINEZOLID] ; what MIC value has been reported?
1
